Listing of entries alongside the reported pKi.
- MEASURED_TARGET: adenosine A1 receptor (Rattus norvegicus)
- Sequence (P25099 1-326): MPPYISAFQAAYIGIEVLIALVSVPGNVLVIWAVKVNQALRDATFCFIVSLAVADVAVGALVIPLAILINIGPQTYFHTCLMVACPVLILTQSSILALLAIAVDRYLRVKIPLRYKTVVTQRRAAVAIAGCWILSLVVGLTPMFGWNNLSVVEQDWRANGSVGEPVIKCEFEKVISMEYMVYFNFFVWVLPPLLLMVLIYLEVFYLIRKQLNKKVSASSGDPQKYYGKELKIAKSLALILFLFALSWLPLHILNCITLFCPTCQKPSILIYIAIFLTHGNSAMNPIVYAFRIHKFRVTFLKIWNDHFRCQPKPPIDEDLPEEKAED
FYI, pKi means -log10 of a concentration in mol per litre.

CCCn1c(=O)c2[nH]c(C34CC5CC(CC3C5)C4)nc2n(CCCO)c1=O [Compound 6] | 9.02

In the following, a different compound is considered.
Dear colleague, I am looking for the recorded pKi of the following compound: CCCn1c(=O)c2[nH]c(C34CC5CC(CC3C5)C4)nc2n(CC(C)O)c1=O (centres unmarked) [Compound 7]
8.21

###

- MEASUREMENT_PROTOCOL: Diuretic Effect
- Format: in vivo, rat (Wistar)
- CONDITIONS_USED: po, 0.01 mg/kg; 4 hours; control 0
- Procedure: The experiment was performed by using Wistar rats (male; 150 to 300 g). The rats were starved for 18 hours prior to the administration of a test compound (n=4 to 5). […] Urine was collected from the rats during 4 hours after the oral administration, and urine volume was measured by a graduated measuring cylinder, and the electrolytes in the urine (Na^+ and K^+) were determined by flame photometer (775 A manufactured by Hitachi, Ltd.).
Listing of entries alongside the reported Increase in amount of K+ excreted Δ(%).
Use % as the unit, but write only the number.

Worked examples follow.
CCCn1c(=O)c2[nH]c(C34CC5CC3CC(C4)C5=O)nc2n(CCC)c1=O | 37
CCCn1c(=O)c2[nH]c(C34C[C@H]5CC3C[C@@H](C4)[C@H]5O)nc2n(CCC)c1=O (relative stereo) | 43
CCCn1c(=O)c2[nH]c(C34CC5CC(CC3C5)C4)nc2n(CC(C)O)c1=O (stereo not shown) | 33

In the following, a different compound is considered.
Dear colleague, I am looking for the recorded Increase in amount of K+ excreted Δ(%) of the following compound: CCCn1c(=O)c2[nH]c(C34C[C@H]5CC3C[C@@H](C4)[C@@H]5O)nc2n(CCC)c1=O (relative stereo)
11

###

- MEASUREMENT_PROTOCOL: Diuretic Effect
- Format: in vivo, rat (Wistar)
- CONDITIONS_USED: po, 0.1 mg/kg; 4 hours; control 0
PROPERTY: Increase in amount of urine Δ(%)
Use % as the unit, but write only the number.

Worked examples follow.
CCCn1c(=O)c2[nH]c(C34CC5CC(C3)C(=O)C4C5)nc2n(CCC)c1=O (stereo not shown) [Compound 2] | 211
CCCn1c(=O)c2[nH]c(C34CC5CC(CC3C5)C4)nc2n(CCCO)c1=O [Compound 6] | 396
CCCn1c(=O)c2[nH]c(C34C[C@H]5CC3C[C@@H](C4)[C@@H]5O)nc2n(CCC)c1=O (relative stereo) [Compound 3] | 105

In the following, a different compound is considered.
Dear colleague, I am looking for the recorded Increase in amount of urine Δ(%) of the following compound: CCCn1c(=O)c2[nH]c(C34CC5CC(CC3C5)C4)nc2n(CC(C)O)c1=O (stereo not shown) [Compound 7]
200

###

Listing of entries alongside the reported Na+/K+.
- MEASUREMENT_PROTOCOL: Diuretic Effect
- Assay type: in vivo, rat (Wistar)
- CONDITIONS_USED: po, 0.01 mg/kg; 4 hours; control 1.00
Format: numeric value only, no unit, no commentary.

CCCn1c(=O)c2[nH]c(C34CC5CC3CC(C4)C5=O)nc2n(CCC)c1=O | 1.78

Dear colleague, I am looking for the recorded Na+/K+ of the following compound: CCCn1c(=O)c2[nH]c(C34CC5CC(CC3C5)C4)nc2n(CC(C)O)c1=O (stereo not shown)
1.48

Dear colleague, I am looking for the recorded Na+/K+ of the following compound: CCCn1c(=O)c2[nH]c(C34C[C@H]5CC3C[C@@H](C4)[C@H]5O)nc2n(CCC)c1=O (relative stereo)
1.86

Dear colleague, I am looking for the recorded Na+/K+ of the following compound: CCCn1c(=O)c2[nH]c(C34C[C@H]5CC3C[C@@H](C4)[C@@H]5O)nc2n(CCC)c1=O (relative stereo)
2.16

###

Listing of entries alongside the reported Increase in amount of Na+ excreted Δ(%).
- MEASUREMENT_PROTOCOL: Diuretic Effect
- Format: in vivo, rat (Wistar)
- CONDITIONS_USED: po, 0.01 mg/kg; 4 hours; control 0
Use % as the unit, but write only the number.

Worked examples follow.
CCCn1c(=O)c2[nH]c(C34C[C@H]5CC3C[C@@H](C4)[C@@H]5O)nc2n(CCC)c1=O (relative stereo) | 139
CCCn1c(=O)c2[nH]c(C34C[C@H]5CC3C[C@@H](C4)[C@H]5O)nc2n(CCC)c1=O (relative stereo) | 167
CCCn1c(=O)c2[nH]c(C34CC5CC(CC3C5)C4)nc2n(CC(C)O)c1=O (stereo not shown) | 97

In the following, a different compound is considered.
Dear colleague, I am looking for the recorded Increase in amount of Na+ excreted Δ(%) of the following compound: CCCn1c(=O)c2[nH]c(C34CC5CC3CC(C4)C5=O)nc2n(CCC)c1=O
144

###

Listing of entries alongside the reported Increase in amount of K+ excreted Δ(%).
- MEASUREMENT_PROTOCOL: Diuretic Effect
- Assay type: in vivo, rat (Wistar)
- CONDITIONS_USED: po, 0.1 mg/kg; 4 hours; control 0
Use % as the unit, but write only the number.

CCCn1c(=O)c2[nH]c(C34CC5CC(C3)C(=O)C4C5)nc2n(CCC)c1=O (stereo not shown) | 32

Dear colleague, I am looking for the recorded Increase in amount of K+ excreted Δ(%) of the following molecule: CCCn1c(=O)c2[nH]c(C34CC5CC(CC3C5)C4)nc2n(CCCO)c1=O
24

Dear colleague, I am looking for the recorded Increase in amount of K+ excreted Δ(%) of the following molecule: CCCn1c(=O)c2[nH]c(C34CC5CC(CC3C5)C4)nc2n(CC(C)O)c1=O (stereo not shown)
23

Dear colleague, I am looking for the recorded Increase in amount of K+ excreted Δ(%) of the following molecule: CCCn1c(=O)c2[nH]c(C34C[C@H]5CC3C[C@@H](C4)[C@@H]5O)nc2n(CCC)c1=O (relative stereo)
-9

###

- MEASUREMENT_PROTOCOL: Diuretic Effect
- Type: in vivo, rat (Wistar)
- CONDITIONS_USED: po, 0.1 mg/kg; 4 hours; control 1.00
PROPERTY: Na+/K+
Format: numeric value only, no unit, no commentary.

Dear colleague, I am looking for the recorded Na+/K+ of the following compound: CCCn1c(=O)c2[nH]c(C34CC5CC(CC3C5)C4)nc2n(CCCO)c1=O
3.03

Dear colleague, I am looking for the recorded Na+/K+ of the following compound: CCCn1c(=O)c2[nH]c(C34CC5CC(CC3C5)C4)nc2n(CC(C)O)c1=O (stereo not shown)
1.93

Dear colleague, I am looking for the recorded Na+/K+ of the following compound: CCCn1c(=O)c2[nH]c(C34C[C@H]5CC3C[C@@H](C4)[C@@H]5O)nc2n(CCC)c1=O (relative stereo)
2.72

Dear colleague, I am looking for the recorded Na+/K+ of the following compound: CCCn1c(=O)c2[nH]c(C34CC5CC(C3)C(=O)C4C5)nc2n(CCC)c1=O (stereo not shown)
2.10
